# study.system: T1, SARS spike S1 subunit (severe acute respiratory syndrome …, UniProt P59594 14-667)
# T1 construct: domain: S1 subunit
# protocol.notes: ELISA
assay.readout: binding result

{"binder": "EW 9B (antibody, V domains shown) VH: EVQLVQSGAEVKKPGASVKVSCKASGYTFTSYYMHWVRQAPGQGLEWMGIINPSGGSTSYAQKFQGRVTMTRDTSTSTVYMELSSLRSEDTAVYYCAREDGVVPAANLMISLEDYYYYGMDVWGQGTTVTVSS VL: EIVLTQSPATLSLSPGERATLSCRASQSVSSYLAWYQQKPGQAPRLLIYDASNRATGIPARFSGSGSGTDFTLTISSLEPEDFAVYYCQQRSNWPLTFGGGTKVDIK", "recorded.result": "no binding"}
{"binder": "FI 4A (antibody, V domains shown) VH: EVQLVESGGGLVKPGGSLRLSCAASGFTFSRFSMNWVRQAPGKGLEWVSSISSSGSYIYFADSVKGRFTISRDNAKNSLYLQMNSLRAEDTAIYYCATYLFGDSHTYWGQGTLVTVSS VL: QSVLTQPHSVSESPGKTVTISCTGSSGSIASNYVQWYQQRPGSAPTTVIYEDNQRPSGVPDRFSGSIDSSSNSASLTISGLKTEDEADYYCQSYDSSNLHWVFGGGTKLTVL", "recorded.result": "no binding"}
{"binder": "FD 1D (antibody, V domains shown) VH: EVQLVESGGGVVQPGRSLRLSCAASGFTFSSYAMHWVRQAPGKGLEWVAVISYDGSNKYYADSVKGRFTISRDNSKNTLYLQMNSLRAEDTAVYYCARAGSGSYLNWFDPWGQGTLVTVSS VL: EIVLTQSPATLSLSPGERATLSCRASQSVSSYLAWYQQKPGQAPRLLIYDASNRATGIPARFSGSGSGTDFTLTISSLEPEDFAVYYCQQRSNWPITFGQGTRLEIK", "recorded.result": "binds"}
{"binder": "FN 12A (antibody, V domains shown) VH: QVQLVQSGAEVKKPGSSVKVSCKASGGTFSSYAISWVRQAPGQGLEWMGRIIPILGIANYAQKFQGRVTITADKSTSTAYMELSSLRSEDTAVYYCARSGCSSTSCPSNLYYYYYGMDVWGQGTTVTVSS VL: QSVLTQPPSVSAAPGQKVTISCSGSSSNIGNNYVSWYQQLPGTAPKLLIYDNNKRPSGIPDRFSGSKSGTSATLGITGLQTGDEADYYCGTWDSSLSALVFGGGTKLTVL", "recorded.result": "binds"}
